- Experimental System: EGFR L858R/C797S Ba/F3 cells (Homo sapiens, UniProt P00533, C797S/L858R, cells depend on it)
- Sequence (P00533 whole entry C797S/L858R): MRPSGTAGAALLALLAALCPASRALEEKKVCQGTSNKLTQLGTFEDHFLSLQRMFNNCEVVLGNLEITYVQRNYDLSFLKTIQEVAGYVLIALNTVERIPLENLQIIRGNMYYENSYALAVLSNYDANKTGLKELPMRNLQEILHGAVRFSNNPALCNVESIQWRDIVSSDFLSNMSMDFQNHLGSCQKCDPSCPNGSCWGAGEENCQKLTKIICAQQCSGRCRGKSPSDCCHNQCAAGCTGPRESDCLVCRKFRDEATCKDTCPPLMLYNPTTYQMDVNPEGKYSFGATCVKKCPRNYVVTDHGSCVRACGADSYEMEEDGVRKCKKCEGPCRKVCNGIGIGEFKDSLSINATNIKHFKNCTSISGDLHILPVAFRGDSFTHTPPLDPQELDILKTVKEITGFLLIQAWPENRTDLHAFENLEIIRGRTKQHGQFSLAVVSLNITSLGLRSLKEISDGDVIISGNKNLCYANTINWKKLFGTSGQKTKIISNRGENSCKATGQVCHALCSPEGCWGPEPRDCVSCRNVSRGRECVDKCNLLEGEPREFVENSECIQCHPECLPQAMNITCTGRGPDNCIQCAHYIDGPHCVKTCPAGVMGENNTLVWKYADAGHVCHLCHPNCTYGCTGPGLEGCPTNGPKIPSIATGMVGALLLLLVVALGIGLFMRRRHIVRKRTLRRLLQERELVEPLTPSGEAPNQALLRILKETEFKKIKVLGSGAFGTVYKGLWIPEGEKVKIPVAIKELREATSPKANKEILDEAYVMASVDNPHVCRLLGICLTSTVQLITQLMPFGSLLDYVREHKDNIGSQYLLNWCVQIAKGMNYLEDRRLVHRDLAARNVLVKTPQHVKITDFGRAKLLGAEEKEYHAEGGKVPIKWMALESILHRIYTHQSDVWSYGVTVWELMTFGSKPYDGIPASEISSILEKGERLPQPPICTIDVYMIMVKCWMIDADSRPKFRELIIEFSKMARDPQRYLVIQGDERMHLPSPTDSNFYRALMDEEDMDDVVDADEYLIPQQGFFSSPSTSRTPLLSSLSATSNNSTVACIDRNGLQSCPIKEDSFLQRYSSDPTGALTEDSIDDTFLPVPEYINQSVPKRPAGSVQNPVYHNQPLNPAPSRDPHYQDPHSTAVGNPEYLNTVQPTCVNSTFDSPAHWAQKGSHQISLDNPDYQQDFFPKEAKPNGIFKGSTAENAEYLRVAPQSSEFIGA
- Protocol Details: Ba/F3 cell proliferation (Cell Titer Glo), EGFR L858R/C797S
- Format: cell-based, murine
- Assay Conditions: 72 hours exposure, read-out: L858R/C797S (μM), inhibitory activity against EGFR mutants
Quantity: GI50

| Compound | GI50 |
| --- | --- |
| C=CC(=O)N1CCN(c2cc3cnc(Nc4ccc(N5CCN(C)CC5)cc4)nc3n(C)c2=O)C2(CC2)C1 | ≥ 2.5 µM |
| C=CC(=O)N1CCN(c2cc3cnc(Nc4ccccc4)nc3n(C3CC(OC)C3)c2=O)c2cccc(C)c21 (centres unmarked) | ≤ 0.25 µM |
| C=CC(=O)N1CCN(c2cc3cnc(N)nc3n(-c3ccc(CN4CCOCC4)cc3)c2=O)c2cccc(C)c21 | ≤ 0.25 µM |

Would you mind listing GI50 for each of the following compounds?
1. C=CC(=O)N1CCN(c2cc3cnc(N)nc3n(-c3ccc(OCCN(C)C)cc3)c2=O)c2cccc(C)c21
2. C=CC(=O)N1CCN(c2cc3cnc(Nc4ccc(OC5CN(S(C)(=O)=O)C5)cc4)nc3n(C)c2=O)c2cccc(C)c21

Result:
1: ≤ 0.25 µM; 2: ≤ 0.25 µM

Would you mind listing GI50 for each of the following compounds?
1. C=CC(=O)Nc1ccccc1Oc1cc2cnc(Nc3ccc(N4CCN(C)CC4)cc3)nc2n(-c2cccc(NC(C)=O)c2)c1=O
2. C=CC(=O)N1CCN(c2cc3cnc(NC4CC4)nc3n(-c3ccc(OCCN(C)C)cc3)c2=O)c2cccc(C)c21
3. C#CC(=O)Nc1ccccc1Oc1cc2cnc(Nc3ccc(N4CCN(C)CC4)cc3)nc2n(C)c1=O
4. C=CC(=O)N1CCN(c2cc3cnc(Nc4ccc(N5CCN(C)CC5)cc4)nc3n(C)c2=O)CC1

Result:
≥ 2.5 µM
≤ 0.25 µM
≥ 2.5 µM
≥ 2.5 µM

Would you mind listing GI50 for each of the following compounds?
1. C=C(F)C(=O)N1CCC(c2cc3cnc(Nc4cnn(CCO)c4)nc3n(C)c2=O)c2ccccc21 (centres unmarked)
2. C=CC(=O)Nc1c(O)cccc1Oc1cc2cnc(Nc3ccc(N4CCN(C)CC4)cc3)nc2n(C)c1=O
3. C=CC(=O)N1CCN(c2cc3cnc(Nc4ccc(OCCN(C)C)cc4)nc3n([C@H]3C[C@@H](O)C3)c2=O)c2cccc(C)c21
4. C=CC(=O)N1CCN(c2cc3cnc(Nc4ccccc4)nc3n([C@H]3C[C@@H](O)C3)c2=O)c2cccc(C)c21
5. C=CC(=O)N1CCN(c2cc3cnc(Nc4ccc(OCCN(C)C)cc4)nc3n(CC(C)(C)O)c2=O)c2cccc(C)c21

Result:
≤ 0.25 µM
0.25 to 0.5 µM
≤ 0.25 µM
≤ 0.25 µM
≤ 0.25 µM

---

- Experimental System: EGFR mutant L858R Ba/F3 cells (Homo sapiens, UniProt P00533, L858R, cells depend on it)
- Sequence (P00533 whole entry L858R): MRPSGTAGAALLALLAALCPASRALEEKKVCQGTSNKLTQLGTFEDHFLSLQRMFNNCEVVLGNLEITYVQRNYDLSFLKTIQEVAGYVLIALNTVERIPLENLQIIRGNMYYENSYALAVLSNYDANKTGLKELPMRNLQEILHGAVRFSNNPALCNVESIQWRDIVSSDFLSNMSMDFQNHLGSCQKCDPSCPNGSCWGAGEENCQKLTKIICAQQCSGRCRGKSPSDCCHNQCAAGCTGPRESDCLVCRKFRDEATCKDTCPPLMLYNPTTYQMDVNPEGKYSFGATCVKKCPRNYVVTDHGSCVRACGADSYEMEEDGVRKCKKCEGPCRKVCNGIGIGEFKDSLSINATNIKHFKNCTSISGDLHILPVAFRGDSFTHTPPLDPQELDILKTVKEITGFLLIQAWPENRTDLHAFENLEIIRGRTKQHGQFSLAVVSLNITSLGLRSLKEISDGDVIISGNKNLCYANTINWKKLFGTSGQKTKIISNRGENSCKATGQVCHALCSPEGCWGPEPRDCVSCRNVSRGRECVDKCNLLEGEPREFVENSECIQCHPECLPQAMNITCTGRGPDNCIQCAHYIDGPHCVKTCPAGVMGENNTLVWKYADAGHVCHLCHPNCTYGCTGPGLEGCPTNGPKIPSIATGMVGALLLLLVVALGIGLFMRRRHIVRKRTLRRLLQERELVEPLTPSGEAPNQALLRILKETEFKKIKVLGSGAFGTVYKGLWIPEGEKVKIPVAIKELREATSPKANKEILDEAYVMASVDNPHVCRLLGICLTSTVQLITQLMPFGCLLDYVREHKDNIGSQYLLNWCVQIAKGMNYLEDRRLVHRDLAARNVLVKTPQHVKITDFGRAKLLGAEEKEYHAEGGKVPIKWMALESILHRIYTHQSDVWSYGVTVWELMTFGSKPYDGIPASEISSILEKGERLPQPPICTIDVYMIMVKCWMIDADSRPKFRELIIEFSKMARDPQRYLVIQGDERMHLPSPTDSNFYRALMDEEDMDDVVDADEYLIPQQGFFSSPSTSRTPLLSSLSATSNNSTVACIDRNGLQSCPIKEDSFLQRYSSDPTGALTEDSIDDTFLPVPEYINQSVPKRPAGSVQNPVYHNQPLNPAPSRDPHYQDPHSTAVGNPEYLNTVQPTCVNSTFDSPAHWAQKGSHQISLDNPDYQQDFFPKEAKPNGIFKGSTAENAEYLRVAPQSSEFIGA
- Protocol Details: Ba/F3 cell proliferation (Cell Titer Glo), EGFR L858R
- Format: cell-based, murine
- Assay Conditions: 72 hours exposure, read-out: L858R BaF3 (μM), inhibitory activity against EGFR mutants
Quantity: GI50

| Compound | GI50 |
| --- | --- |
| C=CC(=O)N1CCN(c2cc3cnc(Nc4ccc(N5CCN(C)CC5)cc4)nc3n(C)c2=O)C(=O)C1 [Compound 025] | ≥ 2.5 µM |
| C=CC(=O)Nc1c(O)cccc1Oc1cc2cnc(Nc3ccc(N4CCN(C)CC4)cc3)nc2n(C)c1=O [Compound 064] | ≤ 0.25 µM |
| C=CC(=O)N1CCN(c2cc3cnc(Nc4cnn(CCN(C)C)c4)nc3n(C)c2=O)c2cccc(C)c21 [Compound 037] | ≤ 0.25 µM |
| C=CC(=O)N1CCN(c2cc3cnc(Nc4ccc(N5CCN(C)CC5)cc4F)nc3n(C)c2=O)c2cccc(C)c21 [Compound 036] | ≤ 0.25 µM |
| C=CC(=O)N1CCN(c2cc3cnc(Nc4ccc(N5CCN(C)CC5)cn4)nc3n(C)c2=O)c2cccc(C)c21 [Compound 030] | ≤ 0.25 µM |

Would you mind listing GI50 for each of the following compounds?
1. C=CC(=O)N1CCN(c2cc3cnc(Nc4ccc(OCCN(C)C)cc4)nc3n(C3CC(O)C3)c2=O)c2cccc(OC)c21 (stereo not shown) [Compound 077]
2. C=CC(=O)N1CCN(c2cc3cnc(Nc4ccc(N5CCN(C)CC5)cc4)nc3n(C)c2=O)C(c2ccccc2)C1 (stereo not shown) [Compound 011]

Result:
["≤ 0.25 µM", "≥ 2.5 µM"]

---

- Experimental System: EGFR L858R/C797S Ba/F3 cells (Homo sapiens, UniProt P00533, C797S/L858R, cells depend on it)
- Protocol Details: Ba/F3 cell proliferation (Cell Titer Glo), EGFR L858R/C797S
- Format: cell-based, murine
- Assay Conditions: 72 hours exposure, read-out: L858R/C797S (μM), inhibitory activity against EGFR mutants
I'd be grateful if you could share measured GI50 for these entries.

Some solved entries appear below for comparison.
| Compound | GI50 |
| --- | --- |
| C=CC(=O)N1CCN(c2cc3cnc(Nc4ccc(OCCN(C)C)cc4)nc3n(C3CC(O)C3)c2=O)c2cccc(C)c21 (stereo not shown) | ≤ 0.25 µM |
| C=CC(=O)N1CCN(c2cc3cnc(Nc4ccccc4)nc3n([C@H]3C[C@H](O)C3)c2=O)c2cccc(C)c21 | ≤ 0.25 µM |
| C=CC(=O)Nc1ccccc1Oc1cc2cnc(Nc3ccc(N4CCN(C)CC4)cc3OC)nc2n(C)c1=O | 0.5 to 2.5 µM |
| C=CC(=O)N1CCN(c2cc3cnc(N)nc3n(-c3ccc(CN4CCN(C)CC4)cc3)c2=O)c2cccc(C)c21 | 0.5 to 2.5 µM |
| C=CC(=O)N1CCN(c2cc3cnc(Nc4ccc(OCCN(C)C)cc4)nc3n([C@H]3C[C@](C)(O)C3)c2=O)c2cccc(C)c21 | ≤ 0.25 µM |
| C=CC(=O)N1CCN(c2cc3cnc(Nc4ccc(N5CCN(C)CC5)cc4)nc3n(C)c2=O)c2cccc(O)c21 | ≤ 0.25 µM |

Please turn your attention to the following entry.
Q: For the compound C=CC(=O)N1CCc2cccc(Oc3cc4cnc(Nc5ccc(N6CCN(C)CC6)cc5)nc4n(C)c3=O)c21 , what GI50 is on record?
Result: ≥ 2.5 µM

---

- Experimental System: EGFR L858R/C775S Ba/F3 cells (Homo sapiens, UniProt P00533, C775S/L858R, cells depend on it)
- Sequence (P00533 whole entry C775S/L858R): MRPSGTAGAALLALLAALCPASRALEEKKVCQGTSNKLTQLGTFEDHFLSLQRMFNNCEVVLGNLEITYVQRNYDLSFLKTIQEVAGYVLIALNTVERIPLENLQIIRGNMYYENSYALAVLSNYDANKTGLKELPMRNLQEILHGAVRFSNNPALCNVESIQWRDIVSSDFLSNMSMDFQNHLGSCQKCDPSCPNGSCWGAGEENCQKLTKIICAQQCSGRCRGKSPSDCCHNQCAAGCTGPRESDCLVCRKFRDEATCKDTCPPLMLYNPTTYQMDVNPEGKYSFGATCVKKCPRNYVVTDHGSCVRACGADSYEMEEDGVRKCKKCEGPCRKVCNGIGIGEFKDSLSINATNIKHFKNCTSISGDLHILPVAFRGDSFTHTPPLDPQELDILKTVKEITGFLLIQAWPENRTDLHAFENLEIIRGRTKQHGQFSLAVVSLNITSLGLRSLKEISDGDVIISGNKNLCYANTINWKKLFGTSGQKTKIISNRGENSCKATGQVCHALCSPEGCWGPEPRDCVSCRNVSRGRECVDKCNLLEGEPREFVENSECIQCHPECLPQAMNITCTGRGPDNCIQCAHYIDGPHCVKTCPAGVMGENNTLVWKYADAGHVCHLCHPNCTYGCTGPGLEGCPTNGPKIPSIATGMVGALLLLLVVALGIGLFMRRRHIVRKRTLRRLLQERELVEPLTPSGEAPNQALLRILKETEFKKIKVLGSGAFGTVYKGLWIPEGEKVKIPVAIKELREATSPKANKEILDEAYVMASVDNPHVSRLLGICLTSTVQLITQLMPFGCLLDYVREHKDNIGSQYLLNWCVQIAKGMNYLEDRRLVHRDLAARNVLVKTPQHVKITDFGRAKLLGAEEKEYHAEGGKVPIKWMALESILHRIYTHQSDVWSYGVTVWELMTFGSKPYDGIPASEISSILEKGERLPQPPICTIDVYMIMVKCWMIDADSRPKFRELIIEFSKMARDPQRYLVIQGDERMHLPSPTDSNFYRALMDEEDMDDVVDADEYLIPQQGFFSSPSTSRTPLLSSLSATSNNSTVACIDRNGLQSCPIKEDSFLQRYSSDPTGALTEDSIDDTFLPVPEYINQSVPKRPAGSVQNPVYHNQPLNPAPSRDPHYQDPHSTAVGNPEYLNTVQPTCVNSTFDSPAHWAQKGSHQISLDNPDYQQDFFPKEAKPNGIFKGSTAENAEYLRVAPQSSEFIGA
- Protocol Details: Ba/F3 cell proliferation (Cell Titer Glo), EGFR L858R/C775S
- Type: cell-based, murine
- Assay Conditions: 72 hours exposure, read-out: L858R/C775S (μM), inhibitory activity against EGFR mutants
- Procedure: The EGFR mutant L858R Ba/F3 cells have been previously described (Zhou, W., et al. Nature 462, 2009, 1070-1074). […] Growth and inhibition of growth was assessed by the Cell Titer Glo assay (Promega, Madison, WI) and was performed according to the manufacturer's instructions. The Cell Titer Glo assay is a luminescence-based method used to determine the number of viable cells based on quantitation of the ATP present, which is directly proportional to the amount of metabolically active cells present. […]
I'd be grateful if you could share measured GI50 for these entries.

Some solved entries appear below for comparison.
| Molecule | Observed Result |
| --- | --- |
| C=CC(=O)N1CCN(c2cc3cnc(Nc4ccc(N5CCN(C)CC5)cc4)nc3n(C)c2=O)CC1 | ≥ 2.5 µM |
| C=CC(=O)Nc1ccccc1Oc1cc2cnc(Nc3ccc(N4CCN(C)CC4)nc3)nc2n(C)c1=O | ≥ 2.5 µM |
| C=CC(=O)Nc1ccccc1Oc1cc2cnc(Nc3ccc(N4CCN(C)CC4)cc3)nc2n(C2CCCN(C(C)=O)C2)c1=O (stereo not shown) | ≥ 2.5 µM |

Please turn your attention to the following entry.
Q: For the molecule C=CC(=O)N1CCc2cccc(Oc3cc4cnc(Nc5ccc(N6CCN(C)CC6)cc5)nc4n(C)c3=O)c21 , what GI50 is on record?
Result: 0.5 to 2.5 µM

---

I'd be grateful if you could share measured GI50 for these entries.
- Experimental System: EGFR L858R/C797S Ba/F3 cells (Homo sapiens, UniProt P00533, C797S/L858R, cells depend on it)
- Protocol Details: Ba/F3 cell proliferation (Cell Titer Glo), EGFR L858R/C797S
- Format: cell-based, murine
- Assay Conditions: 72 hours exposure, read-out: L858R/C797S (μM), inhibitory activity against EGFR mutants

Some solved entries appear below for comparison.
| Compound | GI50 |
| --- | --- |
| C=CC(=O)N1CCN(c2cc3cnc(N)nc3n(-c3ccc(N(C)CCOC)cc3)c2=O)c2cccc(C)c21 | ≤ 0.25 µM |
| C=C(F)C(=O)N1CCN(c2cc3cnc(Nc4ccc(N5CCN(C)CC5)cc4)nc3n(C)c2=O)c2cccc(C)c21 | 0.25 to 0.5 µM |
| C=CC(=O)Nc1ccccc1Oc1cc2cnc(Nc3ccc(N4CCN(C)CC4)cc3)nc2n(C)c1=O | 0.25 to 0.5 µM |
| C=CC(=O)N1CCN(c2cc3cnc(Nc4ccc(OCCN(C)C)cc4)nc3n([C@H]3C[C@H](O)C3)c2=O)c2cccc(C)c21 | ≤ 0.25 µM |
| C=CC(=O)N1CCN(c2cc3cnc(NC4CC4)nc3n(-c3ccc(N(C)CCOC)cc3)c2=O)c2cccc(C)c21 | ≤ 0.25 µM |

Would you mind listing GI50 for each of the following compounds?
1. C=CC(=O)N1CCN(c2cc3cnc(N)nc3n(-c3ccc(OCCN(C)C)c(F)c3)c2=O)c2cccc(C)c21
2. C=CC(=O)N1CCN(c2cc3cnc(Nc4cnn(CCN(C)C)c4)nc3n(C)c2=O)c2cccc(C)c21
3. C=C(F)C(=O)NC1CCCN(c2cc3cnc(Nc4cnn(CCO)c4)nc3n(C)c2=O)C1 (centres unmarked)
4. C=CC(=O)N1CCN(c2cc3cnc(Nc4ccc(CS(=O)(=O)NC)cc4)nc3n(C)c2=O)c2cccc(O)c21

Result:
≤ 0.25 µM
≤ 0.25 µM
≥ 2.5 µM
0.25 to 0.5 µM

Would you mind listing GI50 for each of the following compounds?
1. C=C(F)C(=O)N1CCN(c2cc3cnc(Nc4cnn(CCO)c4)nc3n(C)c2=O)c2ccccc21
2. C=CC(=O)N1CCN(c2cc3cnc(NC4CC4)nc3n(CC3CCOC3)c2=O)c2cccc(C)c21 (centres unmarked)
3. C=CC(=O)N1CC2CCN(c3cc4cnc(Nc5ccc(N6CCN(C)CC6)cc5)nc4n(C)c3=O)C[C@@H]2C1 (some centres unmarked)
4. C=CC(=O)N1CCN(c2cc3cnc(Nc4cnn(CCO)c4)nc3n(C)c2=O)c2cccc(C)c21
5. C=CC(=O)N1CCN(c2cc3cnc(N)nc3n(-c3ccc(N4CCN(C)CC4)cc3)c2=O)c2cccc(C)c21

Result:
0.25 to 0.5 µM
0.25 to 0.5 µM
≥ 2.5 µM
≤ 0.25 µM
≤ 0.25 µM
